- Experimental target: butyrylcholine esterase of human serum origin (Homo sapiens, UniProt P06276)
- Construct: butyrylcholine esterase of human serum origin; purchased Biogenesis, Poole, UK; host or cells: human serum
- Sequence (P06276 29-602): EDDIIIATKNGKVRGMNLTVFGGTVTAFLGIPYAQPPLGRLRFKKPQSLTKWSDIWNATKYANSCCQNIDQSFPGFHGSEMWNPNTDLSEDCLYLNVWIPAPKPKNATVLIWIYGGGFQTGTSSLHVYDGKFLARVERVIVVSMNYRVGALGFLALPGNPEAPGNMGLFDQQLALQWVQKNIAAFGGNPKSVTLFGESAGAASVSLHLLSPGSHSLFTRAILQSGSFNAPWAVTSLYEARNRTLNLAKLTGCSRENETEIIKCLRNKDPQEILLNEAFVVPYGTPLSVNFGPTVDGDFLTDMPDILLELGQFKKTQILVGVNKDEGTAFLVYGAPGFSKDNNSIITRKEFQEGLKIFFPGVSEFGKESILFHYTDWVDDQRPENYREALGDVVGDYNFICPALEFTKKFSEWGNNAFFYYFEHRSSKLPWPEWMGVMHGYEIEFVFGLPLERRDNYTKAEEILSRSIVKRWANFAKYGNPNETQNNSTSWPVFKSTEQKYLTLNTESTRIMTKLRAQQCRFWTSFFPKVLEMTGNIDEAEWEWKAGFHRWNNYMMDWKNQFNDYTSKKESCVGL
- Test protocol: biochemical
- Format: biochemical
- Recorded conditions: read-out: BuChE IC50
pIC50: −log10 of the molar value.
Assay readout: pIC50

Return value of pIC50 for input CCNC(=O)N1CCc2cc(C(=O)CCCCNCCc3ccccc3OC)ccc21.Cl [Compound B4, hydrochloride] , no commentary.
< 5.00

###

- Experimental target: butyrylcholine esterase of human serum origin (Homo sapiens, UniProt P06276)
- Construct: butyrylcholine esterase of human serum origin; purchased Biogenesis, Poole, UK; host or cells: human serum
- Test protocol: biochemical
- Format: biochemical
Assay readout: IC50 (nM)
Give the quantity in nM, number only.

Return value of IC50 for input CN(C)C(=O)Oc1cccc([N+](C)(C)C)c1 [Neostigigmine] , no commentary.
600
